# system-under-test: IKBKE (human)
# protocol-description: radiometric filter-binding kinase assay
# run-parameters: compound 1.0 µM
# maps each entry to its residual activity
Don't forget the unit after the number, please.

Answered cases to consult:
molecule: CC1=C(CO)C(=O)O[C@@H]([C@@H](C)[C@H]2CC[C@H]3[C@@H]4C[C@H]5O[C@]56[C@@H](O)C=CC(=O)[C@]6(C)C4CC[C@]23C)C1 (stereo partly drawn)
readout-kind: residual activity
recorded-measurement: 97%
//
molecule: Cc1cc(NC(=O)c2cccc(NC(=O)/C=C/CN(C)C)c2)ccc1Nc1nccc(-c2cccnc2)n1
readout-kind: residual activity
recorded-measurement: 94%

For the next question, use this molecule.
Fill in: residual activity of CCc1cncnc1N1CCN(Cc2nc3cc(C(F)(F)F)ccc3[nH]2)CC1 is ___
99%
